test: Pharmacokinetics of vonoprazan and MI in rats with or without inhibitor pretreatment; format: in vivo, Sprague-Dawley rats; details: male, Sprague-Dawley, rat, plasma, po, 2 mg/kg, Control group (CMC-Na 7 days), single gavage 2 mg/kg vonoprazan, rat plasma; read-out: MRT(0-t)
The compounds listed here are annotated with their MRT last.
Write the number in h without appending the unit.

# Smiles input, Measurement unit, MRT last
rows = [
    ("O=C(O)c1cc(-c2ccccc2F)n(S(=O)(=O)c2cccnc2)c1", "h", 2.13),
]

Next compound, please.
QUERY: Recall and state the measured MRT last for `CNCc1cc(-c2ccccc2F)n(S(=O)(=O)c2cccnc2)c1` .
RESULT: 2.72

###

assay: Pharmacokinetics of vonoprazan and MI in rats with or without inhibitor pretreatment; format: in vivo, Sprague-Dawley rats; conditions: male, Sprague-Dawley, rat, plasma, po, 2 mg/kg, Amlodipine group (10 mg/kg amlodipine 7 days), single gavage 2 mg/kg vonoprazan, rat plasma
The compounds listed here are annotated with their AUC(0-t).

# Smiles input, AUC(0-t)
records = [
    ("O=C(O)c1cc(-c2ccccc2F)n(S(=O)(=O)c2cccnc2)c1", "2550 ng·h/mL"),
]

Next compound, please.
QUERY: Recall and state the measured AUC(0-t) for `CNCc1cc(-c2ccccc2F)n(S(=O)(=O)c2cccnc2)c1` .
RESULT: 58.5 ng·h/mL

###

test: Pharmacokinetics of vonoprazan and MI in rats with or without inhibitor pretreatment; format: in vivo, Sprague-Dawley rats; settings: male, Sprague-Dawley, rat, plasma, po, 2 mg/kg, Control group (CMC-Na 7 days), single gavage 2 mg/kg vonoprazan, rat plasma; read-out: t1/2z (converted)
Value kind: half-life (h)
Write the number in h without appending the unit.

QUERY: Recall and state the measured half-life for `CNCc1cc(-c2ccccc2F)n(S(=O)(=O)c2cccnc2)c1` .
RESULT: 1.89

QUERY: Recall and state the measured half-life for `O=C(O)c1cc(-c2ccccc2F)n(S(=O)(=O)c2cccnc2)c1` .
RESULT: 2.91

###

The molecules listed here are annotated with their Vd/F.
test: Pharmacokinetics of vonoprazan and MI in rats with or without inhibitor pretreatment; type: in vivo, Sprague-Dawley rats; details: male, Sprague-Dawley, rat, plasma, po, 2 mg/kg, Control group (CMC-Na 7 days), single gavage 2 mg/kg vonoprazan, rat plasma; read-out: Vz/F
Reply with a number, then the unit it belongs to.

# Molecule, Value kind, Recorded value
rows = [
    ("O=C(O)c1cc(-c2ccccc2F)n(S(=O)(=O)c2cccnc2)c1 [MI]", "Vd/F", "5.28 L/kg"),
]

QUERY: Recall and state the measured Vd/F for CNCc1cc(-c2ccccc2F)n(S(=O)(=O)c2cccnc2)c1 [Vonoprazan, vonoprazan] .
RESULT: 190 L/kg

###

Experiment: Pharmacokinetics of vonoprazan and MI in rats with or without inhibitor pretreatment
Type: in vivo, Sprague-Dawley rats
Conditions: male, Sprague-Dawley, rat, plasma, po, 2 mg/kg, Amlodipine group (10 mg/kg amlodipine 7 days), single gavage 2 mg/kg vonoprazan, rat plasma; read-out: Vz/F
Method: The Experimental Animal Research Center of Wenzhou Medical University provided specific pathogen-free (SPF) Sprague-Dawley rats (male, 350 ± 20 g, 3 months old). This research was conducted following the principles of the Basel Declaration. […] The concentrations of vonoprazan and MI that were detected by UPLC-MS/MS were applied to GraphPad 7.0 (GraphPad Software Inc., United States) to calculate IC50 and depict plasma concentration-time curves and Lineweaver–Burk and Dixon plots. […]
Value kind: Vd/F (L/kg)
Write the number in L/kg without appending the unit.

# Smiles input, Vd/F / L/kg
rows = [
    ("CNCc1cc(-c2ccccc2F)n(S(=O)(=O)c2cccnc2)c1", 95.5),
]

QUERY: Recall and state the measured Vd/F for `O=C(O)c1cc(-c2ccccc2F)n(S(=O)(=O)c2cccnc2)c1` .
RESULT: 2.25

###

The compounds listed here are annotated with their AUC(0-inf).
assay: Pharmacokinetics of vonoprazan and MI in rats with or without inhibitor pretreatment; assay type: in vivo, Sprague-Dawley rats; details: male, Sprague-Dawley, rat, plasma, po, 2 mg/kg, Control group (CMC-Na 7 days), single gavage 2 mg/kg vonoprazan, rat plasma
Reply with a number, then the unit it belongs to.

# Compound, AUC(0-inf)
rows = [
    ("O=C(O)c1cc(-c2ccccc2F)n(S(=O)(=O)c2cccnc2)c1 [MI]", "1570 ng·h/mL"),
]

QUERY: Recall and state the measured AUC(0-inf) for CNCc1cc(-c2ccccc2F)n(S(=O)(=O)c2cccnc2)c1 [Vonoprazan, vonoprazan] .
RESULT: 29.1 ng·h/mL

###

tested on: vonoprazan metabolism (MI formation) in human liver microsomes; test: in vitro; conditions: pH 7.4
Value kind: IC50 at 30 min (µM)
Write the number in µM without appending the unit.

QUERY: Recall and state the measured IC50 at 30 min for CCOC(=O)C1=C(COCCN)NC(C)=C(C(=O)OC)C1c1ccccc1Cl (stereo not shown) [Amlodipine, amlodipine besylate] .
RESULT: 7.2

###

assay: Pharmacokinetics of vonoprazan and MI in rats with or without inhibitor pretreatment; type: in vivo, Sprague-Dawley rats; conditions: male, Sprague-Dawley, rat, plasma, po, 2 mg/kg, Control group (CMC-Na 7 days), single gavage 2 mg/kg vonoprazan, rat plasma
The compounds listed here are annotated with their Cmax.
Write the number in ng/mL without appending the unit.

# Smiles input, Cmax [ng/mL]
measured = [
    ("O=C(O)c1cc(-c2ccccc2F)n(S(=O)(=O)c2cccnc2)c1", 766),
]

Next compound, please.
QUERY: Recall and state the measured Cmax for `CNCc1cc(-c2ccccc2F)n(S(=O)(=O)c2cccnc2)c1` .
RESULT: 10.2

###

assay: Pharmacokinetics of vonoprazan and MI in rats with or without inhibitor pretreatment; format: in vivo, Sprague-Dawley rats; details: male, Sprague-Dawley, rat, plasma, po, 2 mg/kg, Amlodipine group (10 mg/kg amlodipine 7 days), single gavage 2 mg/kg vonoprazan, rat plasma
Value kind: Cmax (ng/mL)
Write the number in ng/mL without appending the unit.

# Molecule, Cmax (ng/mL)
records = [
    ("O=C(O)c1cc(-c2ccccc2F)n(S(=O)(=O)c2cccnc2)c1 [MI]", 836),
]

Next molecule, please.
QUERY: Recall and state the measured Cmax for CNCc1cc(-c2ccccc2F)n(S(=O)(=O)c2cccnc2)c1 [Vonoprazan, vonoprazan] .
RESULT: 19

###

test: Pharmacokinetics of vonoprazan and MI in rats with or without inhibitor pretreatment; assay type: in vivo, Sprague-Dawley rats; settings: male, Sprague-Dawley, rat, plasma, po, 2 mg/kg, Amlodipine group (10 mg/kg amlodipine 7 days), single gavage 2 mg/kg vonoprazan, rat plasma; read-out: MRT(0-∞)
Value kind: MRT inf (h)
Write the number in h without appending the unit.

QUERY: Recall and state the measured MRT inf for `O=C(O)c1cc(-c2ccccc2F)n(S(=O)(=O)c2cccnc2)c1` .
RESULT: 3.11

###

assay: Pharmacokinetics of vonoprazan and MI in rats with or without inhibitor pretreatment; assay type: in vivo, Sprague-Dawley rats; conditions: male, Sprague-Dawley, rat, plasma, po, 2 mg/kg, Control group (CMC-Na 7 days), single gavage 2 mg/kg vonoprazan, rat plasma; read-out: MRT(0-∞)
Value kind: MRT inf (h)
Write the number in h without appending the unit.

QUERY: Recall and state the measured MRT inf for CNCc1cc(-c2ccccc2F)n(S(=O)(=O)c2cccnc2)c1 [Vonoprazan, vonoprazan] .
RESULT: 2.87

QUERY: Recall and state the measured MRT inf for O=C(O)c1cc(-c2ccccc2F)n(S(=O)(=O)c2cccnc2)c1 [MI] .
RESULT: 2.44
